Target: JAK3/JAK1 (Homo sapiens, UniProt P23458+P52333)
Assay: Inhibition of JAK1/JAK3 signaling pathway in human primary T-cells assessed as reduction of IL-2 induced cell proliferation
Type: cell-based
propertyLabel: IC50 (nM)
# unit: nM | format: bare number

Q: Look up IC50 for this molecule: COc1cc(Nc2ncc(C)c(Nc3ccc4oc(=O)[nH]c4c3)n2)cc(C)c1F
Result: 20

###

Experiment: AUC in Sprague-Dawley rat 5 mg/kg, po
Assay type: ADME, organism-based
Set-up: dose 5 mg/kg, route po
Details: in vivo
propertyLabel: AUC (ng·h/mL)
# unit: ng·h/mL | format: bare number

Q: Look up AUC for this compound: COc1cc(Nc2ncc(C)c(Nc3ccc4oc(=O)[nH]c4c3)n2)cc(C)c1F.O=S(=O)(O)c1ccccc1
Result: 507

###

Biological target: JAK3/JAK1 (Homo sapiens, UniProt P23458+P52333)
Assay: Inhibition of JAK1/JAK3 signaling pathway in human whole blood assessed as reduction of IL-2 induced STAT5 phosphorylation
Format: tissue-based
propertyLabel: pIC50
# reply with the number alone; pIC50 is -log10 of concentration in mol/L

Q: Look up pIC50 for this compound: COc1cc(Nc2ncc(C)c(Nc3ccc4oc(=O)[nH]c4c3)n2)cc(C)c1F [IFIDANCITINIB]
Result: 6.35

###

Biological target: Tyrosine-protein kinase JAK2 (Homo sapiens, UniProt O60674)
Sequence (O60674 whole entry): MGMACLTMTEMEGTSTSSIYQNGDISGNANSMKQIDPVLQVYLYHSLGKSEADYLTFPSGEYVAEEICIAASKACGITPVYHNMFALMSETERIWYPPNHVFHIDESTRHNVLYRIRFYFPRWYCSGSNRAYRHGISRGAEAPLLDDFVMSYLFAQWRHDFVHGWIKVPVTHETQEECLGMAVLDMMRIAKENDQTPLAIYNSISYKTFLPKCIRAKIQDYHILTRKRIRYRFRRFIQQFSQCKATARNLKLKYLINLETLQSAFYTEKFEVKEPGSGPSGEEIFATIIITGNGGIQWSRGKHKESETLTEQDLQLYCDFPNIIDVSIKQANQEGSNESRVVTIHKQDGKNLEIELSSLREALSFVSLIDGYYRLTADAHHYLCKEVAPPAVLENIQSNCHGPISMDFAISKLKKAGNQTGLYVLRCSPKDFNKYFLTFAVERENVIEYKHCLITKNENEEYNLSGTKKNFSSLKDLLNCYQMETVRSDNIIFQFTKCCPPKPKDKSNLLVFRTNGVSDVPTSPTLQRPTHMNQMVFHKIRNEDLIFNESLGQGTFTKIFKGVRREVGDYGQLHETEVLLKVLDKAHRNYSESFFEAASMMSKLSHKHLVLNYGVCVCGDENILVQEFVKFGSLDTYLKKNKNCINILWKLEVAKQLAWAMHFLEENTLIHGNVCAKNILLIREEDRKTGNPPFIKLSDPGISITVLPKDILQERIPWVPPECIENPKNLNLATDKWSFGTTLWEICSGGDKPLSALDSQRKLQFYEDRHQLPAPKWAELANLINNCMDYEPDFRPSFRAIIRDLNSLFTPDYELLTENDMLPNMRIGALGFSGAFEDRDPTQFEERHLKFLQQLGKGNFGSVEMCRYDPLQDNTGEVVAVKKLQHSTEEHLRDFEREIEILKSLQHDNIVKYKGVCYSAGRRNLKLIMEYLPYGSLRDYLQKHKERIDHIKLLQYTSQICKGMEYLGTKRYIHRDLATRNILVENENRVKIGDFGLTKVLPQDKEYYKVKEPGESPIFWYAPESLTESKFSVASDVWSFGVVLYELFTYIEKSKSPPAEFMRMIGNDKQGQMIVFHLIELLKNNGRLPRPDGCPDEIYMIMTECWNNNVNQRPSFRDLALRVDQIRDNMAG
Experiment: Inhibition of JAK2 signaling pathway in human CHEP cells assessed as inhibition of EPO-induced cell survival preincubated for 1 hr followed by EPO addition and measured after 48 hrs by CellTiter-Glo luminescent assay
Assay type: toxicity, cell-based
Give measured log10 of IC50 for each item. Keep answers brief.
// stored as log10 of IC50 expressed in µM

Q: Look up log10 of IC50 for this molecule: COc1cc(Nc2ncc(C)c(Nc3ccc4oc(=O)[nH]c4c3)n2)cc(OC)c1
Result: -0.88

Q: Here is the next molecule: COc1cc(Nc2ncc(C)c(Nc3ccc4oc(=O)[nH]c4c3)n2)cc(C)c1F
Result: -0.31

Q: Here is the next molecule: Cc1cnc(Nc2ccc(N3CCN(C)CC3)nc2)nc1Nc1ccc2oc(=O)[nH]c2c1
Result: -1.08

Q: Here is the next molecule: COc1cc(Nc2ncc(C)c(Nc3ccc4oc(=O)[nH]c4c3)n2)cc(C)c1C
Result: 0.05

Q: Here is the next molecule: COc1cc(Nc2ncc(C)c(Nc3ccc4oc(=O)[nH]c4c3)n2)cc(C(F)F)c1
Result: -0.76

Q: Here is the next molecule: COc1cc(Nc2ncc(C)c(Nc3ccc4oc(=O)[nH]c4c3)n2)cc(OC)c1OC
Result: -1.09

Q: Here is the next molecule: COc1cc(Nc2ncc(C)c(Nc3ccc4oc(=O)[nH]c4c3)n2)cc(C(F)(F)F)c1
Result: 0.23

###

Target: Tyrosine-protein kinase JAK3 (Homo sapiens, UniProt P52333)
Sequence (P52333 whole entry): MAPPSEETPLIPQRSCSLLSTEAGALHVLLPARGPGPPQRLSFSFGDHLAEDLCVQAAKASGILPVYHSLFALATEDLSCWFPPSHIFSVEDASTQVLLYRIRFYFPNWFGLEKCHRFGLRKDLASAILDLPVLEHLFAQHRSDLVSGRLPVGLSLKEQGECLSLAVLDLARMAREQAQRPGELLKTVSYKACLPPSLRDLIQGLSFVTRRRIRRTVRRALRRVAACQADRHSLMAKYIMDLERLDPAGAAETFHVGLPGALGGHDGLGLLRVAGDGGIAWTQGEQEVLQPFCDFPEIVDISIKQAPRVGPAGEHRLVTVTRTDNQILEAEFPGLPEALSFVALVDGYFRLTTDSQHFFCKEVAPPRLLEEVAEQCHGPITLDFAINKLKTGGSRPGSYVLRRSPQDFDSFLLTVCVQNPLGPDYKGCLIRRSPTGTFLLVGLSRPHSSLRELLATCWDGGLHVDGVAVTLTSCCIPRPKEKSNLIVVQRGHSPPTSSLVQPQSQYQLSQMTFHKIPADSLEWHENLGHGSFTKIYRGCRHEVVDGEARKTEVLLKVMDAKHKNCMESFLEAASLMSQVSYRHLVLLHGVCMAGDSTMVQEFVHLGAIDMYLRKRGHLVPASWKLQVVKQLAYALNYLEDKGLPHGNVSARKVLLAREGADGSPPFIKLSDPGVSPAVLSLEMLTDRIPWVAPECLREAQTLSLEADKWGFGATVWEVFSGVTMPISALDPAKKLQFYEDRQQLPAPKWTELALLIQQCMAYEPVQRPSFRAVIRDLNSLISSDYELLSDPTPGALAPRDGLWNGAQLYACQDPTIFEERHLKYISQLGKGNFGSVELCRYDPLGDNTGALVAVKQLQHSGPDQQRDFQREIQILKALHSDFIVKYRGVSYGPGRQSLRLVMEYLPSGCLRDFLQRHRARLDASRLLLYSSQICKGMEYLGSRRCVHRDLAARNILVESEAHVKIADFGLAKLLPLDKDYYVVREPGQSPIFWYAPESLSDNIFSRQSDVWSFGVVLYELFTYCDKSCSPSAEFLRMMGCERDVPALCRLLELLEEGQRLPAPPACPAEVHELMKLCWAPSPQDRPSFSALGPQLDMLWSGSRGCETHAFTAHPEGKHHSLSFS
Test: Inhibition of human recombinant GST-tagged JAK3 catalytic domain (781 to 1124 residues) expressed in baculovirus expression system by Z'-lyte assay
propertyLabel: pIC50
# reply with the number alone; pIC50 is -log10 of concentration in mol/L

Q: Look up pIC50 for this molecule: COc1cc(Nc2ncc(C)c(Nc3ccc4oc(=O)[nH]c4c3)n2)cc(C)c1F
Result: 6.03

###

Target: Cytochrome P450 1A2 (Homo sapiens, UniProt P05177)
Sequence (P05177 whole entry): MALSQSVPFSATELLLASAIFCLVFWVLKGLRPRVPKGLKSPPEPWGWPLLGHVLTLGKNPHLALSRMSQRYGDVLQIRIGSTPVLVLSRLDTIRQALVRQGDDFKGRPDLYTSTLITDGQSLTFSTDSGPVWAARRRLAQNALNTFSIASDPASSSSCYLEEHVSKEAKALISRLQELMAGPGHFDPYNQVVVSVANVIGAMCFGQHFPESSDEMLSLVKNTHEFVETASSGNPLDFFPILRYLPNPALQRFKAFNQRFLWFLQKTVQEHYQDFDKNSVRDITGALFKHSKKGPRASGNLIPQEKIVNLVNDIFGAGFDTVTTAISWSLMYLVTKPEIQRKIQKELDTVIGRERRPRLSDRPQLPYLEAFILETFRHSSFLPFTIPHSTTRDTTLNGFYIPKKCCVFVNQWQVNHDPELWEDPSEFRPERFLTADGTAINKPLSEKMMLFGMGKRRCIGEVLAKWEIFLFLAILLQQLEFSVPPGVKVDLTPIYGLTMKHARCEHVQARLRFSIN
propertyLabel: Ki (µM)
# unit: µM | format: bare number

Q: Look up Ki for this molecule: COc1cc(Nc2ncc(C)c(Nc3ccc4oc(=O)[nH]c4c3)n2)cc(C)c1C
Result: 6

###

Target: UniProtKB O60674
Test: Inhibition of JAK2 signaling pathway in human CHEP cells assessed as inhibition of EPO-induced cell survival preincubated for 1 hr followed by EPO addition and measured after 48 hrs by CellTiter-Glo luminescent assay
Assay type: toxicity, cell-based
propertyLabel: pIC50
# reply with the number alone; pIC50 is -log10 of concentration in mol/L

Q: Look up pIC50 for this compound: COc1cc(Nc2ncc(C)c(Nc3ccc4oc(=O)[nH]c4c3)n2)cc(C)c1OC
Result: 7.38

Q: Here is the next compound: COc1cc(C)cc(Nc2ncc(C)c(Nc3ccc4oc(=O)[nH]c4c3)n2)c1
Result: 6.45

Q: Here is the next compound: Cc1cnc(Nc2ccc(F)c(C(F)(F)F)c2)nc1Nc1ccc2oc(=O)[nH]c2c1
Result: 6.30

Q: Here is the next compound: COc1ccc(Nc2ncc(C)c(Nc3ccc4oc(=O)[nH]c4c3)n2)cc1C(F)(F)F
Result: 5.70

Q: Here is the next compound: COc1cc(CF)cc(Nc2ncc(C)c(Nc3ccc4oc(=O)[nH]c4c3)n2)c1
Result: 6.77

###

Target: JAK1/TYK2 (Homo sapiens, UniProt P23458+P29597)
Sequence (P23458 whole entry): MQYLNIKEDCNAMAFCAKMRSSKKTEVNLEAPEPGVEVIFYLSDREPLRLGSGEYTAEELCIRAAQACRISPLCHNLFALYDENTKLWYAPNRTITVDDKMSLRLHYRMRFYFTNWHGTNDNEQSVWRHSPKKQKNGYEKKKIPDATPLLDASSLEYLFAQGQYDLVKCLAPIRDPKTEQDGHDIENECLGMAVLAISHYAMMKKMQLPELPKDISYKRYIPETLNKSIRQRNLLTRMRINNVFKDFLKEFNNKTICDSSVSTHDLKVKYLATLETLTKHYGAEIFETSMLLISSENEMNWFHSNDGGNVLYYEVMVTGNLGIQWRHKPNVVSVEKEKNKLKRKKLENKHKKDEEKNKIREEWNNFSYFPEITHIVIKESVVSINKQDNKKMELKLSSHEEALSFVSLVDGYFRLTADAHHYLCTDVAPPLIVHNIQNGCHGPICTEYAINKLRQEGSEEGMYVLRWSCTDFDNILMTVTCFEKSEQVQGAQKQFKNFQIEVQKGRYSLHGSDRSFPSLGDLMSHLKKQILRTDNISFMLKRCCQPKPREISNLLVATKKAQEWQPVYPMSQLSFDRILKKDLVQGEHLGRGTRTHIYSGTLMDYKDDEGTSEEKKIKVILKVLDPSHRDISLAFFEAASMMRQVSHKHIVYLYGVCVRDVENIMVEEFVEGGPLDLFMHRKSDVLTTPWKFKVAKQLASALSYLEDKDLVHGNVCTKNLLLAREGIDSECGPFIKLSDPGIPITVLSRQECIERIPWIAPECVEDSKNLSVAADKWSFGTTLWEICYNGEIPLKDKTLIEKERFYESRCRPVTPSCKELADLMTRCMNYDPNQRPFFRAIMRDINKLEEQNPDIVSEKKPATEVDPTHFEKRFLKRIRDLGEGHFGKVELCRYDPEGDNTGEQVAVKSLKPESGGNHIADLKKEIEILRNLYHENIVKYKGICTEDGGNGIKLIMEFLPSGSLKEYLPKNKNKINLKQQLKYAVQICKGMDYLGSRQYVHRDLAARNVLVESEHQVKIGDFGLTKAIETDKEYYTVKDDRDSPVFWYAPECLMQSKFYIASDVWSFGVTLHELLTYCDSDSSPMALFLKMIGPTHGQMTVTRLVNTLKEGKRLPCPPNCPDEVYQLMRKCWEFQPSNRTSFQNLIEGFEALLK
Sequence (P29597 whole entry): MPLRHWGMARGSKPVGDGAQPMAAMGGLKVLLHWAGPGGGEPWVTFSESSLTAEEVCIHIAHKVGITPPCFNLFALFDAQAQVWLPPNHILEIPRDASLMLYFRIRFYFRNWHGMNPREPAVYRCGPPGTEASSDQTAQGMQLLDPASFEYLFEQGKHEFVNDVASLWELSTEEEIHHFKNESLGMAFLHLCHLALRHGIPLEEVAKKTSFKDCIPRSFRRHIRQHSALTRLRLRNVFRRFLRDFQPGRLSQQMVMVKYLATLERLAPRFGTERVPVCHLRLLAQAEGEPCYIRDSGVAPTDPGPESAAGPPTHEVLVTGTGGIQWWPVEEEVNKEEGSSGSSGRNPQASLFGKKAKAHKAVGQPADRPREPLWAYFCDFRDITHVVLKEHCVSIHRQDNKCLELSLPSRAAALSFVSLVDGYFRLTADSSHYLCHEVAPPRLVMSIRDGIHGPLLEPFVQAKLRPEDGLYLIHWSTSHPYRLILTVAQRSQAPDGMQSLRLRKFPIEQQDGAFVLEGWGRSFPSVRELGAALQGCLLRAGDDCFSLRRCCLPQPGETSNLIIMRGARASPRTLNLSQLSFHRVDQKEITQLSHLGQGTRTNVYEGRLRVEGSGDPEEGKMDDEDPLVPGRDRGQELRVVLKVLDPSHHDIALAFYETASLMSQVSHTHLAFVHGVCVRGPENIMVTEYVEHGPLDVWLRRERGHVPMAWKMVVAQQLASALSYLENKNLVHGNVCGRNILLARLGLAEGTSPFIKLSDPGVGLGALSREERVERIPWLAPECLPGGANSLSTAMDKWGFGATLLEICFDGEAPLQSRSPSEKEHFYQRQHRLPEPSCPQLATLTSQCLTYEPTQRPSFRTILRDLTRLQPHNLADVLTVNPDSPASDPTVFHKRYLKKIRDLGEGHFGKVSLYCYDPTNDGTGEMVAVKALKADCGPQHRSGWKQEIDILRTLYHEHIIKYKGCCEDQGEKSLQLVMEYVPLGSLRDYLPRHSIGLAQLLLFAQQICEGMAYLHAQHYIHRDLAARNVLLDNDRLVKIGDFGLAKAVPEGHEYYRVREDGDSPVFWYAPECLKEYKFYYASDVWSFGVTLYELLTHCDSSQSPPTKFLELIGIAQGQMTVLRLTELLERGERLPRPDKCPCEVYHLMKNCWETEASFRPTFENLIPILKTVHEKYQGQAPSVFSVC
Experiment: Inhibition of JAK1/TYK2 signaling pathway in human primary T-cells assessed as reduction of IFN-alpha induced STAT1 phosphorylation
propertyLabel: pIC50
# reply with the number alone; pIC50 is -log10 of concentration in mol/L

Q: Look up pIC50 for this molecule: COc1cc(Nc2ncc(C)c(Nc3ccc4oc(=O)[nH]c4c3)n2)cc(C)c1F [IFIDANCITINIB]
Result: 8.10

###

Give measured inhibition in vivo at 40 mg/kg for each item. Keep answers brief.
Test: Inhibition of IL-2 stimulated IFN-gamma production in BALB/c mouse at 40 mg/kg, po pretreated for 30 mins followed by IL-2 stimulation and measured after 4 hrs by ELISA
Format: functional
Conditions: time 4.5 hrs

Q: Look up inhibition in vivo at 40 mg/kg for this compound: Cc1cnc(Nc2cccc(C#N)c2)nc1Nc1ccc2oc(=O)[nH]c2c1
Result: 1%

Q: Here is the next compound: Cc1cnc(Nc2cccc(S(N)(=O)=O)c2)nc1Nc1ccc2oc(=O)[nH]c2c1
Result: 30%

Q: Here is the next compound: Cc1cnc(Nc2ccc(N3CCOCC3)nc2)nc1Nc1ccc2oc(=O)[nH]c2c1
Result: 36%

Q: Here is the next compound: COc1cc(Nc2ncc(C)c(Nc3ccc4oc(=O)[nH]c4c3)n2)cc(C(F)F)c1
Result: 92%

Q: Here is the next compound: Cc1cnc(Nc2cccc(NS(C)(=O)=O)c2)nc1Nc1ccc2oc(=O)[nH]c2c1
Result: 15%

Q: Here is the next compound: Cc1cnc(Nc2ccc(C#N)cc2)nc1Nc1ccc2oc(=O)[nH]c2c1
Result: 0%
